Reported EC50 by item:
# tgt: human calcium-sensing receptor (CaSR) (Homo sapiens, UniProt P41180)
# Construct: expressed in transfected cells; host or cells: HEK 293T cells, transiently transfected (lipofectamine 2000); in some cases HEK293 cells stably transfected
# Sequence (P41180 20-1078): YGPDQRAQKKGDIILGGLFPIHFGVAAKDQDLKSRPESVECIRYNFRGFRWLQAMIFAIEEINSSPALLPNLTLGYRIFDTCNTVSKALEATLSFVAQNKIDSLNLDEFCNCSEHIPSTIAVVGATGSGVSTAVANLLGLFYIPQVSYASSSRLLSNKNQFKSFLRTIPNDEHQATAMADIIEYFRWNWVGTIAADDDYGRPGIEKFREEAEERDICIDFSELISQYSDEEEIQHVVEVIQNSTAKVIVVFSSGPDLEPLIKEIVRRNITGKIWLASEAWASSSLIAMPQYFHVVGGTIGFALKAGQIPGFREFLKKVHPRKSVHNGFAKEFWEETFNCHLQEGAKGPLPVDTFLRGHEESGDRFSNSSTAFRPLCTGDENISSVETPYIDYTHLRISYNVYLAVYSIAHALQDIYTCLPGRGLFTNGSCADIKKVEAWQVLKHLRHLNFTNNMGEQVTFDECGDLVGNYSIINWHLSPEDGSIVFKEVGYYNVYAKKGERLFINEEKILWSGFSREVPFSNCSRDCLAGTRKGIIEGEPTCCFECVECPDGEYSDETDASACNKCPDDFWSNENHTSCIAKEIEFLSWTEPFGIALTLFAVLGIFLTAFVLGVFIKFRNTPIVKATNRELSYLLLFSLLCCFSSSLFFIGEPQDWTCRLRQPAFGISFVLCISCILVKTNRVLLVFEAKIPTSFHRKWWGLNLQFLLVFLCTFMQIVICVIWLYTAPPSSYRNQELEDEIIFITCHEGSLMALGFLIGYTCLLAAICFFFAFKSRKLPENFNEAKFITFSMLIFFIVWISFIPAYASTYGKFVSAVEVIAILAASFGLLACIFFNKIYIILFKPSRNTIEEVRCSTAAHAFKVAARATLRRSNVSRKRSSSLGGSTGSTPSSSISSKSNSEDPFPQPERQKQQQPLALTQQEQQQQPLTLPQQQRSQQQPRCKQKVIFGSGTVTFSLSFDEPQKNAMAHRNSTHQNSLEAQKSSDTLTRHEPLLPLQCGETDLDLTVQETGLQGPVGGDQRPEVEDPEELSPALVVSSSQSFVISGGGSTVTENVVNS
# method: In vitro cell assay in HEK-293 expressing the human calcium-sensing receptor (IP1 production)
# Format: cell-based
# run.conditions: Table 5; IP1 production in HEK293 cells expressing human CaSR, eight concentrations in duplicate; read-out: EC50 in CaSR in vitro assay
Square brackets hold non-standard residues; d marks the D form. Peptide text beside a SMILES is read from it.
observable: EC50 (µM)

compound: CC(=O)N[C@H](CS)C(=O)N[C@@H](C(=O)N[C@H](CCCNC(=N)N)C(=O)N[C@H](CCCNC(=N)N)C(=O)N[C@H](CCCNC(=N)N)C(=O)N[C@@H](C(=O)N[C@H](CCCNC(=N)N)C(N)=O)C(C)C)C(C)C [SEQ ID NO: 65, Ac-cvrrrvr-NH2] (Ac-[dC][dV][dR][dR][dR][dV][dR]-NH2)
tgt: human calcium-sensing receptor (CaSR) (Homo sapiens, UniProt P41180)
measurement.unit: µM
measured.number: 35

compound: CC(=O)N[C@H](CS)C(=O)N[C@H](C)C(=O)N[C@H](CCCNC(=N)N)C(=O)N[C@H](CCCNC(=N)N)C(=O)N[C@H](CCCNC(=N)N)C(=O)N[C@H](CCC(=O)O)C(=O)N[C@H](CCCNC(=N)N)C(N)=O [SEQ ID NO: 68, Ac-carrrer-NH2] (Ac-[dC][dA][dR][dR][dR][dE][dR]-NH2)
tgt: human calcium-sensing receptor (CaSR) (Homo sapiens, UniProt P41180)
measurement.unit: µM
measured.number: 62

compound: CC(=O)N[C@H](CS)C(=O)N[C@H](CCCNC(=N)N)C(=O)N[C@H](CCCNC(=N)N)C(=O)N[C@H](CCCNC(=N)N)C(=O)N[C@H](CCCNC(=N)N)C(=O)N[C@H](CCCNC(=N)N)C(=O)N[C@H](C)C(N)=O [SEQ ID NO: 13, Ac-crrrrra-NH2] (Ac-[dC][dR][dR][dR][dR][dR][dA]-NH2)
tgt: human calcium-sensing receptor (CaSR) (Homo sapiens, UniProt P41180)
measurement.unit: µM
measured.number: 1.1

compound: CC(=O)N[C@H](CS)C(=O)N[C@H](C)C(=O)N[C@H](CCCNC(=N)N)C(=O)N[C@H](CCCNC(=N)N)C(=O)N[C@H](CCCNC(=N)N)C(=O)N[C@H](C)C(=O)N[C@H](CCCNC(=N)N)C(N)=O
tgt: human calcium-sensing receptor (CaSR) (Homo sapiens, UniProt P41180)
measurement.unit: µM
measured.number: 1.6
